system: Saccharomyces cerevisiae; experiment: protein stability index of tFT-peptide fusion (C-terminal peptide) (PSI (0-1 scale)); higher = more stable (slower turnover); details: genetic background: wild type; temperature: 30 C
Assign class by protein stability index: not lower than 0.6 means met; lower than 0.6 means not met.

1. RSYRLRTSRADI met
2. PPPPPLRPPRSP met
3. THPPLTSRSSPP met
4. PRPLALPFCKLW met
5. KKRYYNKKINEK met
6. VHRRRVSVGGGV met
7. HLIPSPPTPPRP met
8. LAPPPLGNSSRP met
9. SLVSYSPPLPPP met
10. PAPSPLPPPPSL met
11. ESFGGKAGRDSM met
12. GVGGGEECHGVG not met
13. IRKGKKIRKKEN met
14. WGLGGVCAVRGS not met
15. CGGVQVWRVKVV not met
16. MHATWTLRRHGH not met
17. AGGGPDGFIRPM met
18. PPHPKPPPAPPP not met
19. AHKSFRMVDGNR met

---

test system: Saccharomyces cerevisiae; assay: protein stability index of tFT-peptide fusion (C-terminal peptide) (PSI (0-1 scale)); higher = more stable (slower turnover); conditions: genetic background: wild type; temperature: 30 C
protein stability index for assorted sequences
observable: protein stability index

residues	obs-value
TYKRIKQDEKTD [ALG12 C-terminal 12 aa]	0.707
YGLNIGRPDFYR [TAF10 C-terminal 12 aa]	0.71
NRAKGKVVVKMK [YIM1 C-terminal 12 aa]	0.698
CGVSWKSGVVKL [PXP2 C-terminal 12 aa]	0.716
LKITDDLARKGF [TGL2 C-terminal 12 aa]	0.666
KSADPDAMDTTE [RVB2 C-terminal 12 aa]	0.695
RSRSINGDWRKD [PAN5 C-terminal 12 aa]	0.697
DELSLRPATERI [YGR038C-E C-terminal 12 aa]	0.571
VLDQITGDLKLY [PTH2 C-terminal 12 aa]	0.628
AAISFKEAPRSD [ANB1 C-terminal 12 aa]	0.694
AAGVGSVHGINR [COY1 C-terminal 12 aa]	0.664
FWNCVDGHLKYD [INM1 C-terminal 12 aa]	0.715
GEGGHFVIKKIS [DIT1 C-terminal 12 aa]	0.203
TEPLYILRWLRS [YDR290W C-terminal 12 aa]	0.313
FIAHLILTDALK [ULP1 C-terminal 12 aa]	0.691
SVSYASGYVTIG [MHO1 C-terminal 12 aa]	0.64
FWFLFPLRLPGG [IRC16 C-terminal 12 aa]	0.569
LRYYVSKLINFK [YNL324W C-terminal 12 aa]	0.689
APRKEILACSDL [YOR392W C-terminal 12 aa]	0.665
QVSLLLGFSSRS [MRX20 C-terminal 12 aa]	0.7
YKDDEDDDIEMT [PDS5 C-terminal 12 aa]	0.685
GNNNCPLHMDYI [STE5 C-terminal 12 aa]	0.723
SRRFYRKIDHLA [YLR400W C-terminal 12 aa]	0.507
FSAGNYKLPPGI [KTR3 C-terminal 12 aa]	0.701
KRLTSRLNKKHK [SPN1 C-terminal 12 aa]	0.69
ILLHLEYAAAYS [STN1 C-terminal 12 aa]	0.552
NYLFKLMGPSSD [VTC2 C-terminal 12 aa]	0.655
RLQQVRKNPYPF [OPI7 C-terminal 12 aa]	0.712
GKSSKKKNRSRK [SSH4 C-terminal 12 aa]	0.692
NTFTEHNSNIYY [SPT10 C-terminal 12 aa]	0.706
EEQINGKRKRKD [YJR107C-A C-terminal 12 aa]	0.674
KPEFVDIINSRN [TPI1 C-terminal 12 aa]	0.691
MEKSDRYIQETW [TAH18 C-terminal 12 aa]	0.691
GALERKLHIDEN [MAM1 C-terminal 12 aa]	0.692
VEIFVDKLIDFL [THI80 C-terminal 12 aa]	0.656
RIIEYFEEYQCW [FRE6 C-terminal 12 aa]	0.731
PSYPSEKISYSK [ADO1 C-terminal 12 aa]	0.726
SDENIQPELRGQ [ABF1 C-terminal 12 aa]	0.723
KGTCGCGESFMV [ISA1 C-terminal 12 aa]	0.69
ILHERNIPLEKI [TPT1 C-terminal 12 aa]	0.701
GWFEEVRDHKRH [SKY1 C-terminal 12 aa]	0.753
VKDRPRGKDARL [RML2 C-terminal 12 aa]	0.805
EKPKKKEVEKTA [NOG2 C-terminal 12 aa]	0.688
HETFDFRNLKLR [YER121W C-terminal 12 aa]	0.698
RIELSKYYNTNL [YPD1 C-terminal 12 aa]	0.716
VLSNLAVKALQN [PRM3 C-terminal 12 aa]	0.646
ATAKEWTKKYAV [UBC5 C-terminal 12 aa]	0.729
LRKKQVKKKVKS [SLX8 C-terminal 12 aa]	0.716
SFFCRSSSKSSK [YSC83 C-terminal 12 aa]	0.724

---

system: Saccharomyces cerevisiae; test: protein stability index of tFT-peptide fusion (C-terminal peptide) (PSI (0-1 scale)); higher = more stable (slower turnover); settings: genetic background: wild type; temperature: 30 C
Our labelling divides records by protein stability index into ranges: bucket 1 (below 0.2), bucket 2 (0.2 to below 0.3), bucket 3 (0.3 or more)

1. TVRVWPRNLWFS bucket 1
2. LLLHFMFSIFWF bucket 3
3. LLRIFLPLLYLL bucket 1
4. DLIGSVRRLFCV bucket 2
5. MLSVVSFVSCTC bucket 1
6. VSCYYVFLIPFW bucket 3
7. PFVATRVSCFLT bucket 3
8. PFRSAYYLLFLL bucket 1
9. PLRRPPPRPPWP bucket 3
10. WFIFTITSVAGL bucket 1
11. LPPPYSPRLFHN bucket 1
12. FRLCQRPVFLLS bucket 2

---

system: Saccharomyces cerevisiae; assay: protein stability index of tFT-peptide fusion (C-terminal peptide) (PSI (0-1 scale)); higher = more stable (slower turnover); settings: genetic background: wild type; temperature: 30 C
observable: protein stability index

residues	obs-value
QYVLYKNEAGDK [AIM39 C-terminal 12 aa]	0.698
CLSDIAKVLRNQ [PBP4 C-terminal 12 aa]	0.577
DQTRDFGTSMEL [FOB1 C-terminal 12 aa]	0.712
EKLILAKKDQPN [IST3 C-terminal 12 aa]	0.709
FVDYKTHPVGAN [RGI1 C-terminal 12 aa]	0.714
DAVAEEVKKILA [LEU2 C-terminal 12 aa]	0.68
PSNASNTTTRRP [YKR045C C-terminal 12 aa]	0.69
IVRPLELKYFGR [FCY22 C-terminal 12 aa]	0.688
PLTNNIRPISIM [YJR115W C-terminal 12 aa]	0.655
DIFSRFSIILKC [YPR136C C-terminal 12 aa]	0.281
NEKGNDDSDAKK [ILM1 C-terminal 12 aa]	0.685
QQQQQQQQQQQQ [PUB1 C-terminal 12 aa]	0.672

---

protein stability index for assorted sequences
test system: Saccharomyces cerevisiae; experiment: protein stability index of tFT-peptide fusion (C-terminal peptide) (PSI (0-1 scale)); higher = more stable (slower turnover); details: genetic background: wild type; temperature: 30 C
observable: protein stability index

residues	observable	obs-value
NVIRVWQVMTAN [ASC1 C-terminal 12 aa]	protein stability index	0.272
RREATRISDLLK [FMS1 C-terminal 12 aa]	protein stability index	0.703
VDFLSKKLLKLR [YFL041W-A C-terminal 12 aa]	protein stability index	0.708
SKEFVGSVYLNF [TRL1 C-terminal 12 aa]	protein stability index	0.678
HQDSAKYTHYYL [YER158C C-terminal 12 aa]	protein stability index	0.652
GAGVMAAAAMLL [TIR2 C-terminal 12 aa]	protein stability index	0.709
SIDELETEISTW [BCP1 C-terminal 12 aa]	protein stability index	0.693
ETGHISKDCPKA [GIS2 C-terminal 12 aa]	protein stability index	0.695
FDYDFLFGNDFA [OAF1 C-terminal 12 aa]	protein stability index	0.75
ATSITSLGVKRA [AUR1 C-terminal 12 aa]	protein stability index	0.688
LPSERSRLSYTN [CBP3 C-terminal 12 aa]	protein stability index	0.696
IKIRIYSPRSIS [YDL240C-A C-terminal 12 aa]	protein stability index	0.519

---

protein stability index for assorted sequences
system: Saccharomyces cerevisiae; experiment: protein stability index of tFT-peptide fusion (C-terminal peptide) (PSI (0-1 scale)); higher = more stable (slower turnover); details: genetic background: wild type; temperature: 30 C
observable: protein stability index

1) WFFRCLFLLSLF 0.202
2) SLAPSARLYPYH 0.768
3) VQSWGGRGMVVW 0.719
4) PLPPHVPPSLPP 0.679
5) LRRGRLVSSAAF 0.802
6) FLIFSLSFCVLS 0.671
7) STVKVVIIHFKI 0.48
8) WVRIIIKLRASL 0.315
9) VFPPPLPVRRCP 0.655
10) DQIDGPCNSRTR 0.674
11) HSTENGGCTREY 0.646
12) GGGGGGVDWFEI 0.714
13) KKAKRKHLLGRA 0.66
14) ARPSRPPPPSPP 0.662
15) VRWTVAWAVGAT 0.689
16) APAPPPGVPPSR 0.702
17) PHLDLYRLSALI 0.47
18) VGVWAGVVLLGG 0.825
19) SLGWVRDRICSD 0.75
20) LRSGGVPVFWGS 0.721
21) PPPPPPASPPSP 0.71
22) VLTSLVRGVFTG 0.632
23) PIALPLPPPTPS 0.757
24) DFCSVDLNLCIV 0.61
25) QSRAMFELMGIS 0.652
26) SPTARRLSGCIS 0.658
27) HCYKRGSCTSLI 0.631
28) TRPSPHRPSAST 0.678
29) PVSCPPPPLHMS 0.661
30) FPRSSGRTVNCV 0.648
31) VVGVVVCWGCGW 0.45
32) CYCTYHDQDSVS 0.757
33) AVWNWEEVWLSG 0.654
34) WLFLCWCFFCCL 0.597
35) SLDFRSARFSLG 0.65
36) RQFLSLLPCSLP 0.771
37) VGILHCELVDVS 0.735
38) SLALSPQFLSFP 0.749
39) RLSTPFTVNHFI 0.312
40) GFWESLGGVGAE 0.697
41) GCCFVCSVFWWG 0.431
